Answer each item with its documented phosphorylation enrichment.
Tested on: c-Abl (mouse)
PROCEDURE_DETAILS: phosphorylation enrichment, bacterial display (enrichment ratio); higher = better substrate or ligand; peptides without Tyr show the background
Answers are plain numbers.

// worked examples, phosphorylation enrichment included
| BIOPOLYMER_SEQUENCE | phosphorylation enrichment |
| --- | --- |
| ALTDNYMFVVI [HAGH_Y61_L64V_YF] | 0.99 |
| SSLMKYQQNVS [EGFEM1P_Y160_P157L] | 0.374 |
| GEVKAYGAGLL [TH_Y419] | 0.451 |
| LIQRNYKLAAQ [ALPK2_Y1975] | 0.773 |

Hey, can you go through the list below and give me phosphorylation enrichment for every item?
1. PGGKIYISPLK [RB1_Y805_N803K]
2. PLLEFYWDIFT [CDAN1_Y713_R714W_YF]
3. FAFQLYDLDPD [CHP2_Y123_R127P_YF]
4. EPYKVYRIVPE [IRF8_Y110]
5. GADDSYFTVRS [ZAP70_Y492_A495V_YF]
6. NNIDFYKNTTN [FGFR2_Y657_K659N_YF]
7. CTNPRYLAAGS [RABL3_Y185]
8. VSTAVYKRFAS [BEST1_Y148_P152A]

Result:
[1.17, 0.828, 1.05, 0.473, 0.665, 0.57, 0.787, 0.716]

Hey, can you go through the list below and give me phosphorylation enrichment for every item?
1. IYRASYYRRGD [LTK_Y676]
2. RNPLRYTSILT [OR51B6_Y130_S126N]
3. GEKKAYVRLAP [RPL23A_Y137]
4. GDEEDYEEIPG [EGFR_opt_E_2015]
5. LHQSTYQCYDV [SLC7A14_Y693_R695C]
6. SQQTYYRVSNM [ABCD1_Y181]
7. SHLEDYPFDAE [AKR1B10_Y310_N313D]
8. GFEVVYMTEPI [HSP90AB1_Y512]

Result:
[0.927, 0.697, 0.628, 0.898, 1.35, 0.795, 0.672, 0.693]

Hey, can you go through the list below and give me phosphorylation enrichment for every item?
1. KAPVDYIRKLQ [MITF_Y360_S357P]
2. GTQCSYLLSRK [UGT3A1_Y123]

Result:
[0.475, 0.569]

Hey, can you go through the list below and give me phosphorylation enrichment for every item?
1. RKEAQYMLENE [SLC16A6_Y224]
2. SYVVRYNQPRV [GRIN2D_Y736_M733V]
3. QGCGIYKDYYR [PLA2G2D_Y82_S80G]
4. CNSFQYGGGGG [NPPA_Y151_R150Q]
5. FADIAYSYRHG [PAH_Y166_N167S]
6. VVFIKYLPEWT [PSEN1_Y240_L235V]
7. MPQNEYIELHC [NSA2_Y6_R11C]

Result:
1: 0.997; 2: 0.717; 3: 1.18; 4: 0.731; 5: 0.63; 6: 0.81; 7: 0.658

###

Answer each item with its documented phosphorylation enrichment.
ASSAYED_SYSTEM: FGFR1 (UniProt P11362)
Sequence (P11362 whole entry, looked up): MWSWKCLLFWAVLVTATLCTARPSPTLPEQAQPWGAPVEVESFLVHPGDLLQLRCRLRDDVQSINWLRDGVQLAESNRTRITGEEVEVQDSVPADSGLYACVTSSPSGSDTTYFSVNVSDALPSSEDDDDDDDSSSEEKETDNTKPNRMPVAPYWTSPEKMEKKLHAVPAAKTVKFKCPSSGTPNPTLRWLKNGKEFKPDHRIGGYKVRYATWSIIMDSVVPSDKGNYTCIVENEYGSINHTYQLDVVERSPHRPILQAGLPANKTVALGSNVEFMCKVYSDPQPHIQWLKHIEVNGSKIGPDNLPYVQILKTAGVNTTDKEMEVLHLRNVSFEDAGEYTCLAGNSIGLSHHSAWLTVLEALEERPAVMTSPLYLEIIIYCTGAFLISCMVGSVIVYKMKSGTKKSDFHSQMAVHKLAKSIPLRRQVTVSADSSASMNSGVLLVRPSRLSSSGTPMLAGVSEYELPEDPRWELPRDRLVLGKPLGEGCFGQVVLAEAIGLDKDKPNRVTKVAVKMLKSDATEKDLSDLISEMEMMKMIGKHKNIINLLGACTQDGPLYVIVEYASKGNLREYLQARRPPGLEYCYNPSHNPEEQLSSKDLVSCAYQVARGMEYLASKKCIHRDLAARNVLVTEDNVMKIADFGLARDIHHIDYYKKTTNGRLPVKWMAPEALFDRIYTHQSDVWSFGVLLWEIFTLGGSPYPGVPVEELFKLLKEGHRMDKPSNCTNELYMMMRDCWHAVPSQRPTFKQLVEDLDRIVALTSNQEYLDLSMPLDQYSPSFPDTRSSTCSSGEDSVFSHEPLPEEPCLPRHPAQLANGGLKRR
PROCEDURE_DETAILS: phosphorylation enrichment, bacterial display (enrichment ratio); higher = better substrate or ligand; peptides without Tyr show the background
Give bare numbers.

| BIOPOLYMER_SEQUENCE | ASSAYED_SYSTEM | phosphorylation enrichment |
| --- | --- | --- |
| KSEKVYTRHGV [FLOT1_Y56] | FGFR1 (UniProt P11362) | 0.439 |
| PPAPRYHHLAV [LZTR1_Y119_S122L] | FGFR1 (UniProt P11362) | 0.377 |
| ECKLLYSQKEG [PTPN11_Y263_R265Q] | FGFR1 (UniProt P11362) | 0.532 |
| EKSREYDRLYE [PIK3R1_Y463] | FGFR1 (UniProt P11362) | 0.61 |
| NTYEKYWPFYQ [GATM_Y103] | FGFR1 (UniProt P11362) | 2.76 |
| RLLVVYHWTQR [HBD_Y36_P37H] | FGFR1 (UniProt P11362) | 0.458 |
| PFIDSYEKDVA [PGM1_Y521_L516P_YF] | FGFR1 (UniProt P11362) | 0.592 |
| VEKGSYSALLA [ABCC2_Y845] | FGFR1 (UniProt P11362) | 0.401 |
| TTGLIYIGSHD [AASDH_Y870] | FGFR1 (UniProt P11362) | 0.445 |
| LIQRNYKLAAQ [ALPK2_Y1975] | FGFR1 (UniProt P11362) | 0.937 |

Hey, can you go through the list below and give me phosphorylation enrichment for every item?
1. ARMTNCGLPRF [TSPAN12_Y138_Y138C_YF]
2. SSPVPYLSPET [TJP1_Y931]
3. CTTFHYNFMCN [TP53_Y234_I232F_YF]
4. CNPLRYPTIMI [OR6K6_Y160]

Result:
[0.387, 0.482, 0.579, 0.584]

###

ASSAYED_SYSTEM: Fes (UniProt P07332)
Sequence (P07332 whole entry, looked up): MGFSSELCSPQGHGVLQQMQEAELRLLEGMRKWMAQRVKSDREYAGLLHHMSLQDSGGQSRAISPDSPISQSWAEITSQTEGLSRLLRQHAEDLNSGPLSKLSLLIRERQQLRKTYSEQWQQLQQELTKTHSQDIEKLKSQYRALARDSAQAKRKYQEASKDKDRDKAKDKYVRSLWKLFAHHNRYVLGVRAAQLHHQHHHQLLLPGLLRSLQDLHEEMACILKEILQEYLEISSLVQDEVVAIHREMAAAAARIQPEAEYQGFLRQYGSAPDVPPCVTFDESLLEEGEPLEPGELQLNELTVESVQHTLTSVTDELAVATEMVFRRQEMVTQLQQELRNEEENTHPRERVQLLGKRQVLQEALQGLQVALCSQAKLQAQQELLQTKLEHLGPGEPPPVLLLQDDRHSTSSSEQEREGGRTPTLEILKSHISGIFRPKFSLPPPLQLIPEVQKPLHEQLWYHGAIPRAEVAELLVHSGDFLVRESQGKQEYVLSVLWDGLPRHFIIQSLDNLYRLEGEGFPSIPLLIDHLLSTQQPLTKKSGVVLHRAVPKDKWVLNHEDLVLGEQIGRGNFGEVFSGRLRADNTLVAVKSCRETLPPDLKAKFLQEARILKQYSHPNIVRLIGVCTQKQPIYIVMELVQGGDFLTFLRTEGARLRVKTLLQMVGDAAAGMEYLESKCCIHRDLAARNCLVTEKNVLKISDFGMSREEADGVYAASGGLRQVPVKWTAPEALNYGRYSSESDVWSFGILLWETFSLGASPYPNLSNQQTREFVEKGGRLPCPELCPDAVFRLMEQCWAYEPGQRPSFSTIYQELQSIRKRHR
PROCEDURE_DETAILS: phosphorylation enrichment, bacterial display (enrichment ratio); higher = better substrate or ligand; peptides without Tyr show the background
Label No if phosphorylation enrichment falls below 1; label Yes in every other case.

| BIOPOLYMER_SEQUENCE | CAT |
| --- | --- |
| WKEIEYEVVPD [CPS1_Y634_R638P] | Yes |

Task: Hi team, for FADIAYSYRHG [PAH_Y166_N167S] , is the recorded phosphorylation enrichment at or above 1?
Result: No

Task: Repeat for the following sequence: GIVEDYRPPFY [ACVRL1_Y421]
Result: No

Task: Repeat for the following sequence: NSGFFYKTAEE [CCT6B_Y250]
Result: Yes

Task: Repeat for the following sequence: LHQSTYQCYDV [SLC7A14_Y693_R695C]
Result: Yes

###

ASSAYED_SYSTEM: c-Src SH2
PROCEDURE_DETAILS: SH2 binding enrichment of the phosphorylated peptide, bacterial display (enrichment ratio); higher = better substrate or ligand; peptides without Tyr show the background
# binning rule on SH2 binding enrichment: LOW: < 0.6; MID: ≥ 0.6 and < 1; HIGH: ≥ 1

Solved cases below.
| BIOPOLYMER_SEQUENCE | CAT |
| --- | --- |
| DAVAVYHGKIS [SH2D1A_Y7] | LOW |
| ERDYTYDELLN [EIF2S2_Y176_E177D] | HIGH |
| GESLTYASTTF [C1orf162_Y120] | MID |
| VERRVYAEDPF [PCCA_Y401_C398R_YF] | MID |
| QDDTVYMGKVT [DCTN1_Y1244] | MID |

Task: Which category fits this record: MALDIYRASFF [ALK_Y1278_R1275L_YF]
Result: LOW

Task: Repeat for the following sequence: KLPFPYDDPFS [GPX2_Y127_YF]
Result: HIGH

###

ASSAYED_SYSTEM: Grb2 SH2 (UniProt P62993)
Sequence (P62993 whole entry, looked up): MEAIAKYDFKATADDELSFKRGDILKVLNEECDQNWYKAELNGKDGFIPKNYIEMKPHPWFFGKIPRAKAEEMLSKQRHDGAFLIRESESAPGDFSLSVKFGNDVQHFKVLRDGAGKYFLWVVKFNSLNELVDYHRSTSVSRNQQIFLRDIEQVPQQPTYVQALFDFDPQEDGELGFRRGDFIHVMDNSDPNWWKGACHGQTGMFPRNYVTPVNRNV
PROCEDURE_DETAILS: SH2 binding enrichment of the phosphorylated peptide, bacterial display (enrichment ratio); higher = better substrate or ligand; peptides without Tyr show the background
Label No if SH2 binding enrichment falls below 1; label Yes in every other case.

Solved cases below.
| BIOPOLYMER_SEQUENCE | CAT |
| --- | --- |
| DLHGIYQKLVI | No |
| TSSAIYMNLAS [GATAD2B_Y317] | Yes |
| DLFRLYICVKE [ARID1B_Y1091_V1092I] | No |
| LSSISYVGCSL [ADGRD1_Y571] | Yes |
| AFRHGYFDEEM [PLEC_Y2971_R2969H_YF] | No |

Task: Hi team, for MSRYIYSTDYY [NTRK1_Y676_D674Y] , is the recorded SH2 binding enrichment at or above 1?
Result: No

Task: Repeat for the following sequence: FFLGAYDRFLP [SLC22A5_Y486_V481F_YF]
Result: Yes

###

Tested on: Fer (mouse)
PROCEDURE_DETAILS: phosphorylation enrichment, bacterial display (enrichment ratio); higher = better substrate or ligand; peptides without Tyr show the background
ENDPOINT_NAME: phosphorylation enrichment
Answers are plain numbers.

Hey, can you go through the list below and give me phosphorylation enrichment for every item?
1. ALSDGYWVVSN [TPP1_Y459]
2. PLEGEYFTLQI [TP53_Y327_D324E]
3. IFCIQYNICAF [MYH4_Y820_R823C]
4. EMTAEYACTRK [ACAD9_Y325]
5. EVEPRYVVLFD [ERCC4_Y577_YF]
6. RFLRGYQQDAF [HLA-A_Y137_R138Q_YF]
7. IKKFKYGIEEH [GJA1_Y137]

Result:
1: 0.398; 2: 3.01; 3: 0.538; 4: 0.497; 5: 0.568; 6: 0.518; 7: 0.382
